test system: fecal bile acid (FBA); test: Rat gavage assay (fecal bile acid increase); assay type: in vivo; settings: dose .016 mg/kg/day
Property: Delta (micromoles fecal bile acid per day); scope: individual compounds

>  <COMPOUND>
CCCCC1(CCCC)CS(=O)(=O)c2ccc(N(C)C)cc2[C@@H](c2ccc(OCCCCCN(CCN(CC)CC)CCN(CC)CC)cc2)[C@H]1O [Example 1416]

>  <VALUE OBSERVED>
−7.8 micromoles fecal bile acid per day

$$$$
>  <COMPOUND>
CCCCC1(CCCC)CS(=O)(=O)c2ccc(N(C)C)cc2[C@@H](c2ccc(OCc3ccc(CN(CC(=O)O)CC(=O)O)cc3)cc2)[C@H]1O (relative stereo) [Example 1427]

>  <VALUE OBSERVED>
13.8 micromoles fecal bile acid per day

$$$$
>  <COMPOUND>
CCCCC1(CCCC)CS(=O)(=O)c2ccc(N(C)C)cc2[C@@H](c2ccc(OCCCCC[N+](C)(C)CC[N+](C)(C)CC)cc2)[C@H]1O [Example 1418]

>  <VALUE OBSERVED>
−10 micromoles fecal bile acid per day

$$$$
>  <COMPOUND>
CCCCC1(CCCC)CS(=O)(=O)c2ccc(N(C)C)cc2[C@@H](c2ccc(OCCC[N+]34CCN(CC3)CC4)cc2)[C@H]1O [Example 1406]

>  <VALUE OBSERVED>
−8.5 micromoles fecal bile acid per day

$$$$
>  <COMPOUND>
CCCCC1(CCCC)CS(=O)(=O)c2ccc(N(C)C)cc2[C@@H](c2ccc(OCC(=O)NCC(=O)O)cc2)[C@H]1O [Example 1403]

>  <VALUE OBSERVED>
3 micromoles fecal bile acid per day

$$$$

State its Delta (micromoles fecal bile acid per day) on fecal bile acid (FBA): CCCCC1(CCCC)CS(=O)(=O)c2ccc(N(C)C)cc2[C@@H](c2ccc(OCCCCCc3nn[nH]n3)cc2)[C@H]1O [Example 1420]
29.6 micromoles fecal bile acid per day

State its Delta (micromoles fecal bile acid per day) on fecal bile acid (FBA): CCCCC1(CCCC)CS(=O)(=O)c2ccc(N(C)C)cc2[C@@H](c2ccc(OCCCCCOc3cc(C(=O)O)nc(C(=O)O)c3)cc2)[C@H]1O [Example 1421]
4.7 micromoles fecal bile acid per day

State its Delta (micromoles fecal bile acid per day) on fecal bile acid (FBA): CCCCC1(CCCC)CS(=O)(=O)c2ccc(N(C)C)cc2[C@@H](c2ccc(OCCCCC[N+](C)(C)CCCCCC[N+](C)(C)CCCCCOc3ccc([C@@H]4c5cc(N(C)C)ccc5S(=O)(=O)CC(CCCC)(CCCC)[C@@H]4O)cc3)cc2)[C@H]1O (relative stereo) [Example 1419]
5.8 micromoles fecal bile acid per day

State its Delta (micromoles fecal bile acid per day) on fecal bile acid (FBA): CCCCC1(CCCC)CS(=O)(=O)c2ccc(N(C)C)cc2[C@@H](c2ccc(OCCCCCN(CC(=O)O)CC(=O)O)cc2)[C@H]1O [Example 1415]
12.7 micromoles fecal bile acid per day

* * *

Biological target: human IBAT (Homo sapiens, UniProt Q12908)
Construct: expressed in transfected cells; host or cells: Baby hamster kidney (BHK) cells, clone H14
Sequence (Q12908 whole entry): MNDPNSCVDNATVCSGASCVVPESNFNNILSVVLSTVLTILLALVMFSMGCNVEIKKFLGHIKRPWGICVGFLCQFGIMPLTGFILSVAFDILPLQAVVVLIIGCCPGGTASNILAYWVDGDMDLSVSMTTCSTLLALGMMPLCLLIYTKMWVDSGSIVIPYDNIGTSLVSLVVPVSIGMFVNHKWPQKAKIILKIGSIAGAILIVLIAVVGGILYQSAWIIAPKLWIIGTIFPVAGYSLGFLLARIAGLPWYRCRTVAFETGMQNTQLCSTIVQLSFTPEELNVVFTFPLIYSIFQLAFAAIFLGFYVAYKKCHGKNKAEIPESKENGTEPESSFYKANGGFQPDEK
Test: In vitro assay of IBAT-mediated uptake of [14C]-taurocholate (TC) in H14 cells
Type: cell-based
Settings: In Vitro Taurocholate Uptake, Table 10; read-out: Human TC IC50
Description: In Vitro Assay of Compounds that Inhibit IBAT-Mediated Uptake of [^14C]-Taurocholate (TC) in H14 Cells Baby hamster kidney cells (BHK) transfected with the cDNA of human IBAT (H14 cells) are seeded at 60,000 cells/well in 96 well Top-Count tissue culture plates for assays run within in 24 hours of seeding, 30,000 cells/well for assays run within 48 hours, and 10,000 cells/well for assays run within 72 hours. […]
READOUT NAME: IC50

>  <COMPOUND>
CCCCC1(CCCC)CS(=O)(=O)c2ccc(N(C)C)cc2[C@@H](c2ccc(OCCCCCOc3cc(C(=O)O)nc(C(=O)O)c3)cc2)[C@H]1O

>  <IC50>
4 nM

$$$$
>  <COMPOUND>
CCCCC1(CCCC)CS(=O)(=O)c2ccc(N(C)C)cc2[C@@H](c2ccc(OCCCCC[N+](C)(C)CCCCCC[N+](C)(C)CCCCCOc3ccc([C@@H]4c5cc(N(C)C)ccc5S(=O)(=O)CC(CCCC)(CCCC)[C@@H]4O)cc3)cc2)[C@H]1O (relative stereo)

>  <IC50>
3 nM

$$$$
>  <COMPOUND>
CCCCC1(CCCC)CS(=O)(=O)c2ccc(N(C)C)cc2[C@@H](c2ccc(OCCCCCNC(=N)N)cc2)[C@H]1O

>  <IC50>
3 nM

$$$$
>  <COMPOUND>
CCCCC1(CCCC)CS(=O)(=O)c2ccc(N(C)C)cc2[C@@H](c2ccc(OCCCCC[N+](C)(C)CC[N+](C)(C)CC)cc2)[C@H]1O

>  <IC50>
< 1 nM

$$$$

Now for the compound whose IC50 we want.
Can you share its IC50? I mean this compound: CCCCC1(CCCC)CS(=O)(=O)c2ccc(N(C)C)cc2[C@@H](c2ccc(OCCC[N+]34CCN(CC3)CC4)cc2)[C@H]1O [Example 1407]
3 nM
